Data credit: patent US6461997B1

# Test system: SASKR (russian thistle)
# assay-procedure: Pre-emergence herbicidal activity, cool season
# Assay type: in vivo, Salsola kali
# settings: lowest tested rate with 80% or greater inhibition; rates 300, 100, 30, 10 g/ha; about 14 days
parameter: Pre-emergence activity GR80, SASKR

Example results:
Record lookup: for SASKR (russian thistle), what Pre-emergence activity GR80, SASKR belongs to CCN(CC)C(=S)n1cnc(S(=O)(=O)C(F)(F)C(F)(F)Br)n1 ?
[empty]

Record lookup: for SASKR (russian thistle), what Pre-emergence activity GR80, SASKR belongs to COCCN(C)C(=O)n1cnc(S(=O)(=O)C(F)(F)Br)n1 ?
300 g/ha

Record lookup: for SASKR (russian thistle), what Pre-emergence activity GR80, SASKR belongs to CCCN(CC)C(=O)n1cnc(S(=O)(=O)C(F)(F)Cl)n1 ?
[empty]

Record lookup: for SASKR (russian thistle), what Pre-emergence activity GR80, SASKR belongs to O=C(N1CCCC1)n1cnc(S(=O)(=O)C(F)(F)Cl)n1 ?
300 g/ha

Record lookup: for SASKR (russian thistle), what Pre-emergence activity GR80, SASKR belongs to O=C(N1CCOCC1)n1cnc(S(=O)(=O)C(F)(F)Br)n1 ?
[empty]

Record lookup: for SASKR (russian thistle), what Pre-emergence activity GR80, SASKR belongs to O=C(N1CCCC1)n1cnc(S(=O)(=O)C(F)(F)Br)n1 ?
[empty]

Continuing:
Record lookup: for SASKR (russian thistle), what Pre-emergence activity GR80, SASKR belongs to CCN(CC)C(=O)n1cnc(S(=O)(=O)C(F)(F)SCCOC(=O)c2ccccc2)n1 ?
[empty]
